System: Protein kinase C beta type (Homo sapiens) (UniProt P05771);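 further: measured against the PKC-beta2 splice variant, with values reported as mean percent inhibition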
Sequence (P05771 2-671 limits assumed): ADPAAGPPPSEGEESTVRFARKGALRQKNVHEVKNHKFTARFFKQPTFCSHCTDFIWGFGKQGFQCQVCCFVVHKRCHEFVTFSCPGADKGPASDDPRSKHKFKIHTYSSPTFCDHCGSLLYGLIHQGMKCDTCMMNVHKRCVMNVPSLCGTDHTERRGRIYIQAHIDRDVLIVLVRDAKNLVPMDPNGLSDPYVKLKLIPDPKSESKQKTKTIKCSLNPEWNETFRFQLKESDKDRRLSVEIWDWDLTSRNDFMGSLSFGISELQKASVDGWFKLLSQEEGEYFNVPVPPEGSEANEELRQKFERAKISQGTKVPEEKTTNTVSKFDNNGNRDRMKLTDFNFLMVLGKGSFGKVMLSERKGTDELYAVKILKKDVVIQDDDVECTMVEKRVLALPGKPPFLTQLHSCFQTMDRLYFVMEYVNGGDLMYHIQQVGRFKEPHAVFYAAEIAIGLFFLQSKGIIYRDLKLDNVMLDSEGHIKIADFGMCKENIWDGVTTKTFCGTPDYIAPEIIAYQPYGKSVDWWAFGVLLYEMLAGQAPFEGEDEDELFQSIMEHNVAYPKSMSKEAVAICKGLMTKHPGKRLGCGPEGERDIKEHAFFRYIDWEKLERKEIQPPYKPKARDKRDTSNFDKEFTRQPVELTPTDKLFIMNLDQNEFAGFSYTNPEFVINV
Assay Conditions: at 0.1 µM
Description: GSK_PKIS: PKC-beta2 (splice variant) mean inhibition at 0.1 uM [Nanosyn]
Measured inhibition by item
Endpoint Label: inhibition (%)

[
  {
    "Compound": "C/C(Nc1ccc(S(N)(=O)=O)cc1)=C1/C(=O)Nc2ccccc21",
    "Endpoint Label": "inhibition",
    "Val": -0.77
  },
  {
    "Compound": "CCC(=O)Nc1ccc(C)c(-c2ccc(C(=O)NCC3CC3)cc2)c1",
    "Endpoint Label": "inhibition",
    "Val": 0.61
  },
  {
    "Compound": "CN(c1ccc(NC(=O)Nc2c(Cl)cccc2Cl)cc1)c1ccnc(Nc2cccc(CS(C)(=O)=O)c2)n1",
    "Endpoint Label": "inhibition",
    "Val": 0.41
  },
  {
    "Compound": "COc1cc(Nc2ncc(-c3ccccc3)o2)cc(OC)c1OC",
    "Endpoint Label": "inhibition",
    "Val": 0.3
  },
  {
    "Compound": "O=C1Nc2ccccc2/C1=C/Nc1ccc(-n2cncn2)cc1",
    "Endpoint Label": "inhibition",
    "Val": 1.94
  },
  {
    "Compound": "O=C(NCC1CC1)c1ccc(-c2cccc(C(=O)NC3CC3)c2)cc1",
    "Endpoint Label": "inhibition",
    "Val": 0.69
  },
  {
    "Compound": "O=C(Nc1n[nH]c2nc(-c3ccc(O)cc3)c(Br)cc12)C1CC1",
    "Endpoint Label": "inhibition",
    "Val": 19
  },
  {
    "Compound": "Fc1ccc(-c2ncn(C3CCNCC3)c2-c2ccnc(Oc3ccc4c(c3)OCO4)n2)cc1",
    "Endpoint Label": "inhibition",
    "Val": 1.38
  },
  {
    "Compound": "O=C1Nc2ccc(I)cc2C1=Cc1cc(Br)c(O)c(Br)c1",
    "Endpoint Label": "inhibition",
    "Val": 0.99
  },
  {
    "Compound": "Nc1nccc(-c2c(-c3ccc(F)cc3)ncn2C2CCC(O)CC2)n1 (stereo unspecified)",
    "Endpoint Label": "inhibition",
    "Val": 1.56
  },
  {
    "Compound": "C[C@@H](Oc1cc(-n2cnc3ccc(OCC4CCN(C)CC4)cc32)sc1C(N)=O)c1ccccc1Cl",
    "Endpoint Label": "inhibition",
    "Val": 3.47
  },
  {
    "Compound": "Cc1ccc(NC(=O)c2ccoc2)cc1-c1ccc(C(=O)NCC2CC2)cc1",
    "Endpoint Label": "inhibition",
    "Val": -0.21
  },
  {
    "Compound": "COc1ccc2cc(-c3c(-c4ccncc4)nc(-c4ccc([S+](C)[O-])cc4C)n3C)ccc2c1 (stereo unspecified)",
    "Endpoint Label": "inhibition",
    "Val": 0.04
  },
  {
    "Compound": "Fc1ccc(-c2ncn(C3CCNCC3)c2-c2ccnc(Oc3ccc(Oc4ccccc4)cc3)n2)cc1",
    "Endpoint Label": "inhibition",
    "Val": 2.63
  },
  {
    "Compound": "NS(=O)(=O)c1ccc(Nc2cc(-c3ccc(O)c(F)c3)n[nH]2)cc1",
    "Endpoint Label": "inhibition",
    "Val": -0.96
  },
  {
    "Compound": "NC(=O)c1cc(-c2ccncc2)cc(-c2ccccc2)c1N",
    "Endpoint Label": "inhibition",
    "Val": 1.9
  },
  {
    "Compound": "NS(=O)(=O)c1ccc(N/N=C2\\C(=O)Nc3ccc(C(=O)NCCCn4ccnc4)cc32)cc1",
    "Endpoint Label": "inhibition",
    "Val": 2.11
  },
  {
    "Compound": "CCc1cccc(CC)c1/C=C/c1cncc(C(=O)NC)c1",
    "Endpoint Label": "inhibition",
    "Val": 0.14
  },
  {
    "Compound": "CCN(CC)Cc1ccc(Nc2nccc(-c3cnn4ncccc34)n2)cc1",
    "Endpoint Label": "inhibition",
    "Val": 1
  },
  {
    "Compound": "COC(=O)Nc1nc2ccc(Sc3ccc(NC(=O)Nc4cc(C(F)(F)F)ccc4F)cc3)cc2[nH]1",
    "Endpoint Label": "inhibition",
    "Val": 0.31
  },
  {
    "Compound": "COc1cc(Nc2ncc3c(C)nc(-c4cccc(C(F)(F)F)c4)n3n2)cc(OC)c1OC",
    "Endpoint Label": "inhibition",
    "Val": 1.35
  }
]

====

System: Serine/threonine-protein kinase pim-2 (Homo sapiens) (UniProt Q9P1W9);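 further: reported value is the mean percent inhibition of PIM2, measured in the GSK PKIS kinase inhibitor set screen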
Sequence (Q9P1W9 whole entry, looked up): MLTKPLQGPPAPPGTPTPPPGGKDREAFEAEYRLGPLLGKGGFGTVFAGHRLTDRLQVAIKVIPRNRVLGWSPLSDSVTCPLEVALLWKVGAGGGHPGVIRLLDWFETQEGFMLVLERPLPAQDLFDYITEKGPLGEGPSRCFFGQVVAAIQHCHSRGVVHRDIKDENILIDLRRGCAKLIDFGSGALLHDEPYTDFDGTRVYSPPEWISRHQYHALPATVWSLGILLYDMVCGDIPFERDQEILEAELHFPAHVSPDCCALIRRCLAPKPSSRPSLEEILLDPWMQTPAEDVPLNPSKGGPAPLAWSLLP
Assay Conditions: at 0.1 µM
Measured inhibition by item
Endpoint Label: inhibition (%)

[
  {
    "Compound Structure String": "COc1cccc(/C=N/Nc2ncnc3c2cnn3-c2cccc(OC)c2)c1",
    "System": "Serine/threonine-protein kinase pim-2 (Homo sapiens) (UniProt Q9P1W9)",
    "Endpoint Label": "inhibition",
    "Endpoint Unit": "%",
    "Val": -0.75
  },
  {
    "Compound Structure String": "FC(F)(F)c1cccc(Nc2nccc(-c3cnn4nc(-c5ccccc5)ccc34)n2)c1",
    "System": "Serine/threonine-protein kinase pim-2 (Homo sapiens) (UniProt Q9P1W9)",
    "Endpoint Label": "inhibition",
    "Endpoint Unit": "%",
    "Val": 0.77
  },
  {
    "Compound Structure String": "CN(c1ccc(NC(=O)Nc2c(Cl)cccc2Cl)cc1)c1ccnc(Nc2cccc(CS(C)(=O)=O)c2)n1",
    "System": "Serine/threonine-protein kinase pim-2 (Homo sapiens) (UniProt Q9P1W9)",
    "Endpoint Label": "inhibition",
    "Endpoint Unit": "%",
    "Val": 0.03
  },
  {
    "Compound Structure String": "CN(C)CCCNc1nccc(-c2c(-c3ccc(F)cc3)nn3cc(C(F)(F)F)ccc23)n1",
    "System": "Serine/threonine-protein kinase pim-2 (Homo sapiens) (UniProt Q9P1W9)",
    "Endpoint Label": "inhibition",
    "Endpoint Unit": "%",
    "Val": -3.76
  }
]

====

System: Phosphorylase b kinase gamma catalytic chain, liver/testis isoform (Homo sapiens);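 further: reported value is the mean inhibition of PHKG2 from the GSK_PKIS screening set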
Assay Conditions: at 1 µM
Measured inhibition by item

[
  {
    "Compound Structure String": "Fc1ccc(-c2ncn(C3CCNCC3)c2-c2ccnc(Oc3ccc4c(c3)OCO4)n2)cc1",
    "Endpoint Unit": "%",
    "inhibition": 5.8
  },
  {
    "Compound Structure String": "COc1cccc(-n2cnc3c(N/N=C/c4ccncc4)ncnc32)c1",
    "Endpoint Unit": "%",
    "inhibition": 6.48
  },
  {
    "Compound Structure String": "CCc1ccc(Oc2nccc(-c3c(-c4ccc(F)cc4)ncn3C3CCNCC3)n2)cc1",
    "Endpoint Unit": "%",
    "inhibition": 5.44
  },
  {
    "Compound Structure String": "Cc1ccc(NC(=O)c2ccoc2)cc1-c1ccc(C(=O)NCC2CC2)cc1",
    "Endpoint Unit": "%",
    "inhibition": 3.24
  },
  {
    "Compound Structure String": "COc1cccc(/C=N/Nc2ncnc3c2cnn3-c2cccc(OC)c2)c1",
    "Endpoint Unit": "%",
    "inhibition": 2.4
  },
  {
    "Compound Structure String": "CCC(=O)Nc1ccc(C)c(-c2ccc(C(=O)NCC3CC3)cc2)c1",
    "Endpoint Unit": "%",
    "inhibition": 2.43
  },
  {
    "Compound Structure String": "CCS(=O)(=O)c1ccc(OC)c(Nc2ncc(-c3ccccc3Cl)o2)c1",
    "Endpoint Unit": "%",
    "inhibition": 0.7
  },
  {
    "Compound Structure String": "NC(=O)c1ccc(Oc2nccc(-c3c(-c4ccc(F)cc4)ncn3C3CCNCC3)n2)cc1",
    "Endpoint Unit": "%",
    "inhibition": 5.72
  },
  {
    "Compound Structure String": "O=C(Nc1ccc(Oc2ccc3[nH]c(NC(=O)c4ccccc4)nc3c2)cc1)Nc1cc(C(F)(F)F)ccc1F",
    "Endpoint Unit": "%",
    "inhibition": 4.6
  },
  {
    "Compound Structure String": "N#Cc1ccc(Oc2nccc(-c3c(-c4ccc(F)cc4)ncn3C3CCNCC3)n2)cc1",
    "Endpoint Unit": "%",
    "inhibition": 4.74
  }
]

====

System: Tyrosine-protein kinase ZAP-70 (Homo sapiens) (UniProt P43403)
Sequence (whole entry): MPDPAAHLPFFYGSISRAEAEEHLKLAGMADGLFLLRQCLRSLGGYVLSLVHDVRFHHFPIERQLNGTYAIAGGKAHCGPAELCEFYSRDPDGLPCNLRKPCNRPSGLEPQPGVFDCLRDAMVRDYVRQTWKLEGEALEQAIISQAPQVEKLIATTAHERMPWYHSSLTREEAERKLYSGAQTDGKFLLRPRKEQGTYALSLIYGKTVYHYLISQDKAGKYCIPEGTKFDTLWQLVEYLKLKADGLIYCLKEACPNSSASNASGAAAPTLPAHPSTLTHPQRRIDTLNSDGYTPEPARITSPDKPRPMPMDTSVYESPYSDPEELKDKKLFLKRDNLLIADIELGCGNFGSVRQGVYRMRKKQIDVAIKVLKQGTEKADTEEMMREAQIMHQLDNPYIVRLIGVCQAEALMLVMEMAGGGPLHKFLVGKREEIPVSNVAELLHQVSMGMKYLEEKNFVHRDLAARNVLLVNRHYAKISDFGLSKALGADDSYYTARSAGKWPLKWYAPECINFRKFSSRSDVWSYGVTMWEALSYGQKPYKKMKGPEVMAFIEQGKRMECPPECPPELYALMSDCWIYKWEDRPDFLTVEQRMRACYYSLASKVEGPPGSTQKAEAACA
Assay Conditions: at 1 µM
Description: GSK_PKIS: ZAP70 mean inhibition at 1 uM [Nanosyn]
Measured inhibition by item

[
  {
    "Compound": "NC(=O)c1cc(-c2ccncc2)cc(-c2ccccc2)c1N",
    "inhibition [%]": 29
  },
  {
    "Compound": "O=C(Nc1ccc(Oc2ccc3[nH]c(NC(=O)c4ccccc4)nc3c2)cc1)Nc1cc(C(F)(F)F)ccc1F",
    "inhibition [%]": 1.65
  },
  {
    "Compound": "O=C1Nc2ccccc2/C1=C/Nc1ccc(-n2cncn2)cc1",
    "inhibition [%]": 7.33
  },
  {
    "Compound": "COc1cc2ncn(-c3cc(OCc4ccccc4C(F)(F)F)c(C(C)=O)s3)c2cc1OC",
    "inhibition [%]": -3.94
  },
  {
    "Compound": "NCc1ccc(-n2c(-c3nonc3N)nc3cnccc32)cc1",
    "inhibition [%]": 6.32
  },
  {
    "Compound": "c1ccc(Oc2ccc(Nc3ncc(-c4ccccc4)o3)cc2)cc1",
    "inhibition [%]": 0.91
  },
  {
    "Compound": "COC(=O)Nc1nc2ccc(Sc3ccc(NC(=O)Nc4cc(C(F)(F)F)ccc4F)cc3)cc2[nH]1",
    "inhibition [%]": -0.65
  },
  {
    "Compound": "Nc1nccc(-c2c(-c3ccc(F)cc3)ncn2C2CCC(O)CC2)n1 (stereo not given)",
    "inhibition [%]": 1.54
  },
  {
    "Compound": "COc1cc(Nc2ncc(-c3ccccc3)o2)cc(OC)c1OC",
    "inhibition [%]": 0.62
  },
  {
    "Compound": "Cc1nnc(-c2ccc(C)c(-c3ccc(C(=O)NCc4ccc(Cl)cc4)cc3)c2)o1",
    "inhibition [%]": -3.27
  }
]
